Values from ChEMBL document CHEMBL1121884

# Target under test: Serotonin (5-HT) receptor (Rattus norvegicus) (UniProt P35563+P35365+P32305+P31388+Q9JJ16+P28564+P30994+Q62758+P08909+P14842+P30940+P35364+P19327+P28565)
# Test details: Ability to elicit head twitches in rats (a serotonin mimetic response)
# Type: functional
# Design: concentration or dose not given beside the values
What Activity was measured for each of the following?
Numbers only.

Illustrative cases are given below, each with its answer.
Cpd smiles: Clc1ccc2nc(N3CCNCC3)c(Sc3ccccc3)nc2c1
Activity: 1

Cpd smiles: COc1ccc2nc(N3CCNCC3)cnc2c1
Activity: 1

Cpd smiles: Nc1nc2ccccc2nc1N1CCNCC1
Activity: 2

Cpd smiles: COc1cccc2nc(N3CCNCC3)cnc12
Activity: 1

Cpd smiles: Clc1cc2ncc(N3CCNCC3)nc2cc1Cl
Activity: 0

Cpd smiles: Cl.Clc1cccc2nc(N3CCNCC3)cnc12
Activity: 0

Cpd smiles: CC(=O)N1CCN(c2cnc3cc(Cl)ccc3n2)CC1
Activity: 2

Shifting focus to the molecule that follows.
Query: Indicate its recorded Activity; the molecule in question is `CN(C)CCn1c(=O)c(N2CCNCC2)nc2ccccc21`
Reply: 1

###

# System: Rattus norvegicus
# Test details: Ability to elicit head twitches in rats a response characteristic of a serotonin mimetic action in the central nervous system after 9 mg/kg of ip administration
# Assay type: functional
# Reported conditions: route intraperitoneal
What Activity was measured for each of the following?
Numbers only.

Cpd smiles: CN1CCN(c2cnc3cc(Cl)ccc3n2)CC1.Cl
Activity: 1

Return reported Activity values for all items listed beneath this line.
1. Clc1ccc2ncc(N3CCNCC3)nc2c1
2. Cc1cccc2nc(N3CCNCC3)cnc12.Cl
3. Cn1c(=O)c(N2CCNCC2)nc2ccccc21
4. Cl.ON1CCN(c2cnc3ccccc3n2)CC1

Reply:
[3, 5, 5, 4]

###

# Target under test: Sodium-dependent serotonin transporter (Rattus norvegicus) (UniProt P31652)
# Sequence (P31652 whole entry): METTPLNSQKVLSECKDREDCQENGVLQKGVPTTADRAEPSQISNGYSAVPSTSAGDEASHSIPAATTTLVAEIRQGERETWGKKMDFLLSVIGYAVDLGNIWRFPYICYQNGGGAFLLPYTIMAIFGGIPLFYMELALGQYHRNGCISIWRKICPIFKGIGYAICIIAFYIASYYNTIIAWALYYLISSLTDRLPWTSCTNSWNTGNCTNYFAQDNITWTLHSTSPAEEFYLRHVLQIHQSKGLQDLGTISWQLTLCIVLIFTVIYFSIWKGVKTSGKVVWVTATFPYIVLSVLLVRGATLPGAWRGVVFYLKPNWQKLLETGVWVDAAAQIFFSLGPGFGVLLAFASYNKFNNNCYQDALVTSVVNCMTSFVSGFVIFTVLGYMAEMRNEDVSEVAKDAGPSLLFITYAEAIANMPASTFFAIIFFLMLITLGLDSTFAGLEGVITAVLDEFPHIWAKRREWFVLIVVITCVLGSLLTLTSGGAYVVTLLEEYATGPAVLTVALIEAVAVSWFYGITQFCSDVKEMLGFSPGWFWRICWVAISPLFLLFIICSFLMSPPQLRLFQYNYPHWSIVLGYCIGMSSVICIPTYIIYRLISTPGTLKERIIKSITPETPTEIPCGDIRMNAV
# Test details: Serotonin neuronal reuptake blocking activity was determined by the antagonism of the head twitch response induced by treatment of rats
# Assay type: functional
# Parameters: concentration or dose not given beside the values
Recorded endpoint: PCMA antagonism
Give bare numbers.

Illustrative cases are given below, each with its answer.
Cpd smiles: Fc1cccc2ncc(N3CCNCC3)nc12
Target under test: Sodium-dependent serotonin transporter (Rattus norvegicus) (UniProt P31652)
PCMA antagonism: 1
//
Cpd smiles: CN(C)CCn1c(=O)c(N2CCNCC2)nc2ccccc21
Target under test: Sodium-dependent serotonin transporter (Rattus norvegicus) (UniProt P31652)
PCMA antagonism: 0
//
Cpd smiles: Clc1ccc2nc(N3CCNCC3)c(Sc3ccccc3)nc2c1
Target under test: Sodium-dependent serotonin transporter (Rattus norvegicus) (UniProt P31652)
PCMA antagonism: 2

Shifting focus to the compound that follows.
Query: Indicate its recorded PCMA antagonism; the compound in question is `Cl.FC(F)(F)c1ccc2nc(N3CCNCC3)c(Sc3ccccc3)nc2c1`
Reply: 0

###

# System: Rattus norvegicus
# Test details: Serotonin neuronal reuptake blocking activity was determined by the antagonism of the head twitch response induced in rats with p-chloromethamphetamine (PCMA) after 9 mg/kg of ip administration
# Type: functional
# Reported conditions: route intraperitoneal
Recorded endpoint: PCMA antagonism
One number for each entry.

Illustrative cases are given below, each with its answer.
Cpd smiles: Cn1c(=O)c(N2CCNCC2)nc2ccccc21
PCMA antagonism: 0
--
Cpd smiles: Clc1ccc2ncc(N3CCNCC3)nc2c1
PCMA antagonism: 5
--
Cpd smiles: CN1CCN(c2cnc3cc(Cl)ccc3n2)CC1.Cl
PCMA antagonism: 4

Query: Indicate its recorded PCMA antagonism; the compound in question is `Cc1cccc2nc(N3CCNCC3)cnc12.Cl`
Reply: 1

###

What PCMA antagonism was measured for each of the following?
# Target under test: Sodium-dependent serotonin transporter (Rattus norvegicus)
# Test details: Serotonin neuronal reuptake blocking activity was determined by the antagonism of the head twitch response induced by treatment of rats
# Format: functional
# Parameters: concentration or dose not given beside the values
Answers are plain numbers.

Molecule: CN(C)CCn1c(=O)c(N2CCNCC2)nc2ccccc21
PCMA antagonism: 2

Return reported PCMA antagonism values for all items listed beneath this line.
1. O=C(O)C1CN(c2cnc3ccccc3n2)CCN1 (stereo unspecified)
2. CN1CCN(c2nc3ccccc3nc2O)CC1
3. Clc1cc2ncc(N3CCNCC3)nc2cc1Cl
4. Cl.FC(F)(F)c1ccc2nc(N3CCNCC3)c(Sc3ccccc3)nc2c1
5. Clc1ccc2nc(N3CCNCC3)c(Sc3ccccc3)nc2c1

Reply:
1: 0; 2: 1; 3: 1; 4: 1; 5: 1

###

What PCMA antagonism was measured for each of the following?
# Target under test: Sodium-dependent serotonin transporter (Rattus norvegicus) (UniProt P31652)
# Test details: Serotonin neuronal reuptake blocking activity was determined by the antagonism of the head twitch response induced in rats
# Assay type: functional
# Parameters: concentration or dose not given beside the values
One number for each entry.

Illustrative cases are given below, each with its answer.
Compound: Nc1ccc2nc(N3CCNCC3)cnc2c1
PCMA antagonism: 3

Compound: Fc1ccc2nc(N3CCNCC3)cnc2c1
PCMA antagonism: 4

Compound: CC(=O)N1CCN(c2cnc3cc(Cl)ccc3n2)CC1
PCMA antagonism: 0

Compound: CN1CCN(c2nc3ccc(S(N)(=O)=O)cc3nc2Cl)CC1
PCMA antagonism: 2

Compound: Cl.Clc1ccc2nc(N3CCNCC3)cnc2c1
PCMA antagonism: 6

Compound: Oc1ccc2nc(N3CCNCC3)cnc2c1
PCMA antagonism: 2

Compound: COc1cccc2nc(N3CCNCC3)cnc12
PCMA antagonism: 2

Compound: O=C(O)C1CN(c2cnc3ccccc3n2)CCN1 (stereo not given)
PCMA antagonism: 0

Return reported PCMA antagonism values for all items listed beneath this line.
1. Oc1nc2ccccc2nc1N1CCNCC1
2. O=[N+]([O-])c1ccc2nc(N3CCNCC3)cnc2c1
3. Nc1nc2ccccc2nc1N1CCNCC1
4. Clc1cc2ncc(N3CCNCC3)nc2cc1Cl
5. Clc1ccc2nc(N3CCNCC3)c(Sc3ccccc3)nc2c1
6. CN1CCN(c2nc3ccccc3nc2O)CC1
7. CN(C)CCn1c(=O)c(N2CCNCC2)nc2ccccc21

Reply:
1
5
0
3
1
0
0

###

# System: Rattus norvegicus
# Test details: Ability to elicit head twitches in rats a response characteristic of a serotonin mimetic action in the central nervous system was measured after 0.67 mg/kg of ip administration
# Type: functional
# Reported conditions: route intraperitoneal
Recorded endpoint: Activity
Give bare numbers.

Illustrative cases are given below, each with its answer.
Cpd smiles: COc1ccc2ncc(N3CCNCC3)nc2c1
Activity: 1
--
Cpd smiles: Fc1ccc2nc(N3CCNCC3)cnc2c1
Activity: 4
--
Cpd smiles: Brc1ccc2nc(N3CCNCC3)cnc2c1.Cl
Activity: 0
--
Cpd smiles: Cl.O=[N+]([O-])c1ccc2ncc(N3CCNCC3)nc2c1
Activity: 1

Shifting focus to the molecule that follows.
Query: Indicate its recorded Activity; the molecule in question is `CS(=O)(=O)c1ccc2nc(N3CCNCC3)cnc2c1`
Reply: 0

###

# Target under test: Sodium-dependent serotonin transporter (Rattus norvegicus)
# Test details: Serotonin neuronal reuptake blocking activity was determined by the antagonism of the head twitch response induced by treatment of rats
# Format: functional
# Parameters: concentration or dose not given beside the values
Recorded endpoint: PCMA antagonism
One number for each entry.

Illustrative cases are given below, each with its answer.
Cpd smiles: Fc1cccc2ncc(N3CCNCC3)nc12
PCMA antagonism: 0
--
Cpd smiles: c1ccc2nc(N3CCNCC3)cnc2c1
PCMA antagonism: 2
--
Cpd smiles: COc1cccc2nc(N3CCNCC3)cnc12
PCMA antagonism: 0
--
Cpd smiles: CN1CCN(c2nc3ccc(S(N)(=O)=O)cc3nc2Cl)CC1
PCMA antagonism: 2
--
Cpd smiles: O=[N+]([O-])c1ccc2nc(N3CCNCC3)cnc2c1
PCMA antagonism: 5
--
Cpd smiles: Cl.Clc1ccc2nc(N3CCNCC3)cnc2c1
PCMA antagonism: 4
--
Cpd smiles: CC(=O)N1CCN(c2cnc3cc(Cl)ccc3n2)CC1
PCMA antagonism: 0
--
Cpd smiles: Fc1ccc2nc(N3CCNCC3)cnc2c1
PCMA antagonism: 2
--
Cpd smiles: Cl.Clc1cccc2nc(N3CCNCC3)cnc12
PCMA antagonism: 0
--
Cpd smiles: COc1ccc2nc(N3CCNCC3)cnc2c1
PCMA antagonism: 3

Shifting focus to the molecule that follows.
Query: Would you please give the reported PCMA antagonism of `Nc1nc2ccccc2nc1N1CCNCC1` with Sodium-dependent serotonin transporter (Rattus norvegicus)?
Reply: 1

###

# Target under test: Serotonin (5-HT) receptor (Rattus norvegicus) (UniProt P35563+P35365+P32305+P31388+Q9JJ16+P28564+P30994+Q62758+P08909+P14842+P30940+P35364+P19327+P28565)
# Test details: Ability to elicit head twitches in rats (a serotonin mimetic response)
# Assay type: functional
# Parameters: concentration or dose not given beside the values
Please use Y for Activity under 1 and N for everything else, ties included.

Query: Is the reported Activity for `COc1cccc2nc(N3CCNCC3)cnc12` strictly below 1?
Reply: N

Query: Is the reported Activity for `Cl.Clc1ccc2nc(N3CCNCC3)cnc2c1` strictly below 1?
Reply: N
